molecular target: human recombinant serotonin (5-Hydroxytryptamine) 5-HT2A receptor (Homo sapiens, UniProt P28223); construct: expressed in transfected cells; host or cells: CHO-K1; experiment: Serotonin 5-HT2A radioligand binding ([3H]Ketanserin); conditions: compound at 0.1 μM; read-out: Inhibition of ligand binding, Serotonin 5-HT2A (percent inhibition of specific binding)
Sequence (P28223 whole entry): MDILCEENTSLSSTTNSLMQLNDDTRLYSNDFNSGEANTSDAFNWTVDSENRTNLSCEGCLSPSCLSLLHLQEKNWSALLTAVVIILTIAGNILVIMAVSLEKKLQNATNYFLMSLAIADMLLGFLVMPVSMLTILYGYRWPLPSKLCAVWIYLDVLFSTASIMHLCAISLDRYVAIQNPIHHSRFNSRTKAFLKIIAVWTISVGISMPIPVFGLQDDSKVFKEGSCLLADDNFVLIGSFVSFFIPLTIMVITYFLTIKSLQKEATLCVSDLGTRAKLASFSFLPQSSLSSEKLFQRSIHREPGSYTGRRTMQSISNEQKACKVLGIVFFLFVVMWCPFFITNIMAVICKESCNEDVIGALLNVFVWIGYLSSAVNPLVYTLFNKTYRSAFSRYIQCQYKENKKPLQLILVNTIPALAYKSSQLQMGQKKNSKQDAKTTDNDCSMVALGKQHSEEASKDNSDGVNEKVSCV
Kindly return Condition met if reported inhibition at 0.1 µM is no lower than 80%; return Condition not met if it is lower.

| molecule | classification |
| --- | --- |
| Cc1ccc2c(c1)c1c(n2-c2ccc3nc(C)ccc3c2)CCN(C)C1 [Compound No. 157] | Condition met |
| Cc1ccc2c(c1)c1c(n2-c2cscc2-c2cnc(N(C)C)nc2)CCN(C)C1 [Compound 40] | Condition not met |
| CC(=O)Nc1ccc(-c2cccc(-n3c4c(c5cc(C)ccc53)CN(C)CC4)c2)cn1 [Compound 45] | Condition not met |
| Cc1ccc2c(c1)c1c(n2-c2ccccc2-c2cncc3ccccc23)CCN(C)C1 [Compound No. 87] | Condition not met |
| Cc1ccc2c(c1)c1c(n2-c2cscc2-c2ccccc2)CCN(C)C1 [Compound 21] | Condition met |
| Cc1ccc2c(c1)c1c(n2-c2ccc(-c3cccnc3)cn2)CCN(C)C1 [Compound No. 133] | Condition met |
| Cc1ccc2c(c1)c1c(n2-c2ccc(-c3sccc3C)cn2)CCN(C)C1 [Compound No. 148] | Condition met |
| Cc1ccc2c(c1)c1c(n2-c2cccc(-c3cnn(C)c3)c2)CCN(C)C1 [Compound 46] | Condition met |

Problem: Would you say Cc1ccc2c(c1)c1c(n2-c2cscc2-c2sccc2C)CCN(C)C1 [Compound 39] shows inhibition at 0.1 µM at minimum 80%?
Result: Condition met

Problem: Try this molecule next: Cc1ccc2c(c1)c1c(n2-c2cscc2-c2cccnc2)CCN(C)C1 [Compound 22]
Result: Condition not met
